Quick reference: solubility of the listed items.
Assay: Solubility of organic compounds in supporting electrolyte at room temperature
Format: physicochemical
Conditions: 10 m BMImCl-H2O, aqueous with cosolvent or surfactant or cyclodextrin, thermodynamic from solid, BMImCl—H2O (10 m / concentrated), neutral, no additive
Dear colleague, please return just the value in mM, with no unit written.

### Prompt Give the measured solubility for COc1cc(O)ccc1O [2-methoxyhydroquinone]
### Response 6000

### Prompt Give the measured solubility for `COc1cc(C=O)ccc1O`
### Response 4000

### Prompt Give the measured solubility for `Cl.NCCSc1cc(O)ccc1O`
### Response 1200

====

Assay: Solubility of organic compounds in supporting electrolyte at room temperature
Assay type: physicochemical
Conditions: thermodynamic from solid; pure water
readout: solubility (mM)
Dear colleague, please return just the value in mM, with no unit written.

### Prompt Give the measured solubility for `Cl.NCCSc1cc(O)ccc1O`
### Response 2000

====

Quick reference: solubility of the listed items.
Assay: Solubility of organic compounds in supporting electrolyte at room temperature
Assay type: physicochemical
Settings: 10 m LiTFSI-H2O, aqueous with cosolvent or surfactant or cyclodextrin, thermodynamic from solid, LiTFSI—H2O (10 m), neutral, no additive

Please review the following examples before continuing.
INSERT INTO results (compound, result) VALUES
  ('COc1cc(O)cc(OC)c1O [2,6-dimethoxyhydroquinone]', '700 mM'),
  ('COc1cc(C=O)ccc1O [vanillin, Vanillin]', '4000 mM'),
  ('CC[N+](CC)(CC)Cc1ccc2c(c1)C(=O)c1ccccc1C2=O.[Br-]', '500 mM');

--- query ---
### Prompt Give the measured solubility for COc1cc(O)ccc1O [2-methoxyhydroquinone]
### Response 4200 mM

====

Assay: Solubility of organic compounds in supporting electrolyte at room temperature
Format: physicochemical
Conditions: supporting electrolyte, aqueous with cosolvent or surfactant or cyclodextrin, thermodynamic from solid, 10 m LiTFSI-H2O; c: with 0.3 g triethanolamine per mL solvent
readout: solubility
Put down the number, then write its unit next to it.

### Prompt Give the measured solubility for `CC[N+](CC)(CC)Cc1ccc2c(c1)C(=O)c1ccccc1C2=O.[Br-]`
### Response 300 mM

====

Test: Solubility of organic compounds in supporting electrolyte at room temperature
Assay type: physicochemical
Conditions: acidic LiTFSI-H2O, aqueous with cosolvent or surfactant or cyclodextrin, thermodynamic from solid, acidic LiTFSI—H2O
readout: solubility
Put down the number, then write its unit next to it.

### Prompt Give the measured solubility for COc1cc(O)cc(OC)c1O [2,6-dimethoxyhydroquinone]
### Response 500 mM

====

Test: Solubility of organic compounds in supporting electrolyte at room temperature
Format: physicochemical
Settings: 10 m LiTFSI-H2O with 1 M HCl, aqueous with cosolvent or surfactant or cyclodextrin, thermodynamic from solid, 10 m LiTFSI-H2O; b: with 1 M HCl
readout: solubility (mM)
Dear colleague, please return just the value in mM, with no unit written.

### Prompt Give the measured solubility for COc1cc(O)cc(OC)c1O [2,6-dimethoxyhydroquinone]
### Response 500

====

Test: Solubility of organic compounds in supporting electrolyte at room temperature
Assay type: physicochemical
Conditions: acidic BMImCl-H2O, aqueous with cosolvent or surfactant or cyclodextrin, thermodynamic from solid, acidic BMImCl—H2O
readout: solubility (mM)
Dear colleague, please return just the value in mM, with no unit written.

### Prompt Give the measured solubility for `Cl.NCCSc1cc(O)ccc1O`
### Response 900

====

Assay: Solubility of organic compounds in supporting electrolyte at room temperature
Type: physicochemical
Conditions: water with 1 M HCl, aqueous buffer, thermodynamic from solid, H2O; b: with 1 M HCl
From the text: The last recorded amount was recognized as the solubility of the organics.
readout: solubility

### Prompt Give the measured solubility for COc1cc(O)cc(OC)c1O [2,6-dimethoxyhydroquinone]
### Response < 100 mM

====

Experiment: Solubility of organic compounds in supporting electrolyte at room temperature
Assay type: physicochemical
Details: water, thermodynamic from solid, H2O; a: without additive
readout: solubility

Please review the following examples before continuing.
INSERT INTO results (compound, readout, result) VALUES
  ('COc1cc(C=O)ccc1O', 'solubility', '< 100 mM'),
  ('CC[N+](CC)(CC)Cc1ccc2c(c1)C(=O)c1ccccc1C2=O.[Br-]', 'solubility', '< 100 mM');

--- query ---
### Prompt Give the measured solubility for COc1cc(O)cc(OC)c1O [2,6-dimethoxyhydroquinone]
### Response < 100 mM

====

Test: Solubility of organic compounds in supporting electrolyte at room temperature
Assay type: physicochemical
Details: 10 m TBACl-H2O, aqueous with cosolvent or surfactant or cyclodextrin, thermodynamic from solid, 10 m TBACl-H2O; a: without additive
readout: solubility (mM)
Dear colleague, please return just the value in mM, with no unit written.

INSERT INTO results (compound, unit_string, result) VALUES
  ('COc1cc(C=O)ccc1O', 'mM', 4000);

--- query ---
### Prompt Give the measured solubility for COc1cc(O)cc(OC)c1O [2,6-dimethoxyhydroquinone]
### Response 200

====

Assay: Solubility of organic compounds in supporting electrolyte at room temperature
Format: physicochemical
Conditions: 10 m LiTFSI-H2O, aqueous with cosolvent or surfactant or cyclodextrin, thermodynamic from solid, 10 m LiTFSI-H2O; a: without additive
readout: solubility (mM)
Dear colleague, please return just the value in mM, with no unit written.

INSERT INTO results (molecule, readout, unit_string, result) VALUES
  ('COc1cc(O)cc(OC)c1O [2,6-dimethoxyhydroquinone]', 'solubility', 'mM', 700),
  ('COc1cc(C=O)ccc1O', 'solubility', 'mM', 4000);

### Prompt Give the measured solubility for `CC[N+](CC)(CC)Cc1ccc2c(c1)C(=O)c1ccccc1C2=O.[Br-]`
### Response 500

====

Test: Solubility of organic compounds in supporting electrolyte at room temperature
Type: physicochemical
Conditions: 10 m TBACl-H2O with 1 M HCl, aqueous with cosolvent or surfactant or cyclodextrin, thermodynamic from solid, 10 m TBACl-H2O; b: with 1 M HCl
readout: solubility
Put down the number, then write its unit next to it.

### Prompt Give the measured solubility for COc1cc(O)cc(OC)c1O [2,6-dimethoxyhydroquinone]
### Response 100 mM

====

Assay: Solubility of organic compounds in supporting electrolyte at room temperature
Format: physicochemical
Details: 10 m LiTFSI with triethanolamine, aqueous with cosolvent or surfactant or cyclodextrin, thermodynamic from solid, 10 m LiTFSI with 0.3 g triethanolamine per milliliter
Description: The last recorded amount was recognized as the solubility of the organics.
readout: solubility

### Prompt Give the measured solubility for `CC[N+](CC)(CC)Cc1ccc2c(c1)C(=O)c1ccccc1C2=O.[Br-]`
### Response 300 mM

====

Assay: Solubility of organic compounds in supporting electrolyte at room temperature
Assay type: physicochemical
Details: 10 m TBACl-H2O with triethanolamine, aqueous with cosolvent or surfactant or cyclodextrin, thermodynamic from solid, 10 m TBACl-H2O; c: with 0.3 g triethanolamine per mL solvent
readout: solubility

### Prompt Give the measured solubility for `CC[N+](CC)(CC)Cc1ccc2c(c1)C(=O)c1ccccc1C2=O.[Br-]`
### Response < 100 mM
